// provenance: patent US7919488B2

# Measured Target: CYP3A4 (Homo sapiens, UniProt P08684)
# Construct: 0.1 mg/mL human liver microsomes; from tissue; host or cells: human liver microsomes
# Sequence (P08684 whole entry): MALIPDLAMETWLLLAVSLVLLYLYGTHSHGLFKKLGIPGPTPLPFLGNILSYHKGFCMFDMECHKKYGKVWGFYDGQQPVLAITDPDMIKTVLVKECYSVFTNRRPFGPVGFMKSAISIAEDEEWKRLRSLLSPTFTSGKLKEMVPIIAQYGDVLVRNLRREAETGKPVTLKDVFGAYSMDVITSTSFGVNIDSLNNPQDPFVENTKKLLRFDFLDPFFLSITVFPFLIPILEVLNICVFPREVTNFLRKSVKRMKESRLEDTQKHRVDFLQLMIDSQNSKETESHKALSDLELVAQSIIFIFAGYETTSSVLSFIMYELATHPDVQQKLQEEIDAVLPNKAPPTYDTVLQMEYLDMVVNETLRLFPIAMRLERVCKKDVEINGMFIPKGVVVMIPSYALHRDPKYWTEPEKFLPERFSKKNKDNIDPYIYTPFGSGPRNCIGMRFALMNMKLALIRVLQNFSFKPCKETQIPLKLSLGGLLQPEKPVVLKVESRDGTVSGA
# Procedure Text: IC50 against CYP3A4 by inhibition of testosterone metabolism in human liver microsomes
# Assay type: biochemical
# Assay Setup: 0.1 mg/mL human liver microsomes, 25 μM testosterone, 1 mM NADPH, 6-β-OH-testosterone production, eight minutes; read-out: IC50, μM (HLM, testosterone)
Binary call on IC50 with cut-off 0.05 µM: strictly below means 1 (yes), and equality or higher means 0 (no).

Lookup: Does this compound meet the criterion IC50 < 0.05 µM? CCNC(=O)NC1CCN(C(=O)Cn2nc(-c3ccncc3)cc2Cc2ccc(F)cc2)CC1
Found: 1 (yes)

Lookup: State whether 0.05 µM exceeds IC50 recorded for Fc1ccc(Cc2cc(-c3ccncc3)nn2C2CN(C(c3ccccc3)c3ccccc3)C2)cc1 .
Found: 0 (no)

Lookup: Quick check: does CC(O)Cn1nc(-c2ccncc2)cc1Cc1ccc(F)cc1 (stereo not shown) have IC50 under 0.05 µM?
Found: 0 (no)

Lookup: Field: below-cutoff. Rule: recorded IC50 strictly less than 0.05 µM. Subject: O=C(Cn1nc(-c2ccncc2)cc1Cc1ccc(F)cc1)N1CC[C@@H](N2CCOCC2)C1
Found: 0 (no)

Lookup: Given CN(C(=O)C1CCC1)C1CCN(C(=O)Cn2nc(-c3ccncc3)cc2Cc2ccc(F)cc2)CC1 , is recorded IC50 strictly lower than 0.05 µM?
Found: 1 (yes)

Lookup: is_below(IC50, 0.05 µM) for COC(=O)N[C@H]1CCN(C(=O)Cn2nc(-c3ccncc3)cc2Cc2ccc(F)cc2)C1 ?
Found: 1 (yes)

Lookup: Check if IC50 falls below 0.05 µM for CCCN(C)C1(C(N)=O)CCN(C(=O)Cn2nc(-c3ccncc3)cc2Cc2ccc(F)cc2)CC1 .
Found: 1 (yes)

Lookup: Given CN(C(=O)Cn1nc(-c2c[nH]cn2)cc1Cc1ccc(F)cc1)[C@H]1CC[C@H](O)CC1 , is recorded IC50 strictly lower than 0.05 µM?
Found: 0 (no)

Lookup: Take the compound CNC1CCN(C(=O)Cn2nc(-c3ccncc3)cc2Cc2ccc(F)cc2)C1 (stereo not shown) and say whether its IC50 is less than 0.05 µM.
Found: 0 (no)

Lookup: Please indicate whether the reported IC50 of CS(=O)(=O)C1CCN(C(=O)Cn2nc(-c3ccncc3)cc2Cc2ccc(F)cc2)C1 (stereo not shown) is strictly below 0.05 µM.
Found: 1 (yes)

Lookup: Would you kindly verify if IC50 of CN(C1CCN(C(=O)Cn2nc(-c3ccncc3)cc2Cc2ccc(F)cc2)CC1)S(C)(=O)=O is strictly less than 0.05 µM?
Found: 1 (yes)

Lookup: Just wondering, is IC50 of O=C(Cn1nc(-c2ccncc2)cc1Cc1ccc(F)cc1)NCCN1CCOCC1 below 0.05 µM?
Found: 1 (yes)

Lookup: In the record for O=C(Cn1nc(-c2ccncn2)cc1Cc1ccc(F)cc1)N1CCN(c2ccccn2)CC1 , is IC50 less than 0.05 µM?
Found: 1 (yes)

Lookup: Does the reported IC50 of the following compound sit strictly below 0.05 µM? O=C(CCN1CCOCC1)N1CC(n2nc(-c3ccncc3)cc2Cc2ccc(F)cc2)C1
Found: 0 (no)

Lookup: # TODO verify IC50 < 0.05 µM strictly for this compound: O=C(c1ncc[nH]1)N1CC(n2nc(-c3ccncc3)cc2Cc2ccc(F)cc2)C1
Found: 1 (yes)

Lookup: Hi there! Is IC50 for O=C(Cn1nc(-c2ccncc2)cc1Cc1ccc(F)cc1)N1CCC(N2CCCS2(=O)=O)CC1 below 0.05 µM, do you know?
Found: 1 (yes)

Lookup: Given the entry CC(C)OC(=O)NC1CCN(C(=O)Cn2nc(-c3ccncc3)cc2Cc2ccc(F)cc2)CC1 , would its reported IC50 be below 0.05 µM?
Found: 1 (yes)

Lookup: Report whether reported IC50 is lower than 0.05 µM (strictly) for C[C@@H](O)CNC(=O)Cn1nc(-c2ccncc2)cc1Cc1ccc(F)cc1
Found: 1 (yes)

Lookup: Check if IC50 falls below 0.05 µM for O=C(Cn1nc(-c2ccncc2)cc1Cc1ccc(F)cc1)N1CCNCC1 .
Found: 0 (no)

Lookup: IC50 strictly < 0.05 µM for this compound? CNC1CCN(C(=O)Cn2nc(-c3ccncc3)cc2Cc2ccc(F)cc2)CC1
Found: 0 (no)

Lookup: Hello, is IC50 of the following compound strictly smaller than 0.05 µM? O=C(c1ncccn1)N1CC(n2nc(-c3ccncc3)cc2Cc2ccc(F)cc2)C1
Found: 0 (no)

Lookup: Does this compound meet the criterion IC50 < 0.05 µM? O=C(Cn1nc(-c2ccncc2)cc1Cc1ccc(F)cc1)N1CCC[C@@H]1CO
Found: 1 (yes)

Lookup: Consider the compound CS(=O)(=O)C1CCN(C(=O)Cn2nc(-c3ccncc3)cc2Cc2ccc(F)cc2)CC1 . Is its IC50 strictly less than 0.05 µM?
Found: 1 (yes)

Lookup: Does this compound meet the criterion IC50 < 0.05 µM? Cc1noc(CCNC(=O)Cn2nc(-c3ccncc3)cc2Cc2ccc(F)cc2)n1
Found: 1 (yes)

Lookup: Hi there! Is IC50 for CNC(=O)N(C)C1CCN(C(=O)Cn2nc(-c3ccncc3)cc2Cc2ccc(F)cc2)CC1 below 0.05 µM, do you know?
Found: 1 (yes)

---

Assign IC50 to each entry below.
# Measured Target: CYP3A4 (Homo sapiens)
# Construct: 0.1 mg/mL human liver microsomes; from tissue; host or cells: human liver microsomes
# Procedure Text: IC50 against CYP3A4 by inhibition of testosterone metabolism in human liver microsomes
# Type: biochemical
# Assay Setup: 0.1 mg/mL human liver microsomes, 25 μM testosterone, 1 mM NADPH, 6-β-OH-testosterone production, eight minutes; read-out: IC50, μM (HLM, testosterone)

Lookup: Enter measured IC50, system CYP3A4 (Homo sapiens), for the molecule shown: CC(C)NC(=O)Cn1nc(-c2c[nH]cn2)cc1Cc1ccc(F)cc1
Found: 0.714 µM

Lookup: For CYP3A4 (Homo sapiens), give IC50 of the listed molecule: Cc1cc(CNC(=O)Cn2nc(-c3ccncc3)cc2Cc2ccc(F)cc2)no1
Found: 0.016 µM

Lookup: Recall the reported IC50 of C[C@H](O)CNC(=O)Cn1nc(-c2ccncc2)cc1Cc1ccc(F)cc1 on CYP3A4 (Homo sapiens) and write it down.
Found: 0.032 µM

Lookup: Give IC50 for this entry on CYP3A4 (Homo sapiens): NC(=O)[C@@H]1CCC[C@@H]1NC(=O)Cn1nc(-c2ccncc2)cc1Cc1ccc(F)cc1
Found: 0.041 µM

Lookup: State, for CYP3A4 (Homo sapiens), measured IC50 of the molecule listed here: Cc1noc(Cn2nc(-c3ccncc3)cc2Cc2ccc(F)cc2)n1
Found: 0.0665 µM

Lookup: Please tell me the measured IC50 for O=C(Cn1nc(-c2ccncc2)cc1Cc1ccc(F)cc1)N1CCC(N2CCCC2=O)CC1 ; system: CYP3A4 (Homo sapiens).
Found: 0.033 µM

Lookup: Param request: IC50 | system CYP3A4 (Homo sapiens) | item COC(=O)N(C)C1CCN(C(=O)Cn2nc(-c3ccncc3)cc2Cc2ccc(F)cc2)C1 (stereo not drawn)
Found: 0.026 µM

Lookup: Please indicate recorded IC50 of CCS(=O)(=O)N(C)C1CCN(C(=O)Cn2nc(-c3ccncc3)cc2Cc2ccc(F)cc2)CC1 measured with CYP3A4 (Homo sapiens).
Found: 0.016 µM

Lookup: Lab note: CYP3A4 (Homo sapiens) assay, enter IC50 for C[C@H](CO)NC(=O)Cn1nc(-c2ccncc2)cc1Cc1ccc(F)cc1 here
Found: 0.022 µM

Lookup: Fill: IC50 (CYP3A4 (Homo sapiens)) for this molecule O=C(Cn1nc(-c2c[nH]cn2)cc1Cc1ccc(F)cc1)N1CCC[C@@H](O)C1
Found: > 0.75 µM

Lookup: State measured IC50 of the molecule Fc1ccc(Cc2cc(-c3ccncc3)nn2Cc2nc(-c3ncccn3)no2)cc1 with CYP3A4 (Homo sapiens).
Found: < 0.012 µM

Lookup: Give reported IC50 for OCCn1nc(Cc2ccc(F)cc2)cc1-c1ccncc1 (CYP3A4 (Homo sapiens))
Found: 0.446 µM

Lookup: Tell me its IC50 on CYP3A4 (Homo sapiens): NC1CCN(C(=O)Cn2nc(-c3ccncc3)cc2Cc2ccc(F)cc2)CC1
Found: 0.273 µM

Lookup: State measured IC50 of the molecule CC(C)NC(=O)N(C)C1CCN(C(=O)Cn2nc(-c3ccncc3)cc2Cc2ccc(F)cc2)CC1 with CYP3A4 (Homo sapiens).
Found: 0.016 µM

Lookup: Please indicate recorded IC50 of CC(C)(N)CNC(=O)Cn1nc(-c2ccncc2)cc1Cc1ccc(F)cc1 measured with CYP3A4 (Homo sapiens).
Found: 0.062 µM

---

# Measured Target: CYP3A4 (Homo sapiens, UniProt P08684)
# Construct: 0.1 mg/mL human liver microsomes; from tissue; host or cells: human liver microsomes
# Procedure Text: IC50 against CYP3A4 by inhibition of midazolam metabolism in human liver microsomes
# Assay type: biochemical
# Assay Setup: 0.1 mg/mL human liver microsomes, 2 μM midazolam, 1 mM NADPH, 1-hydroxymidazolam production, eight minutes; read-out: IC50, μM (HLM, midazolam)
Hi there, I'd appreciate the recorded IC50 for every entry that follows.
Put your answer as a value accompanied by its unit after it.

Lookup: Enter measured IC50, system CYP3A4 (Homo sapiens, UniProt P08684), for the compound shown: CCc1nc(CNC(=O)Cn2nc(-c3ccncc3)cc2Cc2ccc(F)cc2)no1
Found: 0.064 µM

Lookup: System CYP3A4 (Homo sapiens, UniProt P08684). Read-out IC50. Item CC(C)NC(=O)Cn1nc(-c2c[nH]cn2)cc1Cc1ccc(F)cc1 . Report value.
Found: 0.223 µM

Lookup: Given CCC(=O)N1CC(n2nc(-c3ccncc3)cc2Cc2ccc(F)cc2)C1 , report its IC50 on CYP3A4 (Homo sapiens, UniProt P08684).
Found: 0.084 µM

Lookup: Give IC50 for this entry on CYP3A4 (Homo sapiens, UniProt P08684): CN1CCN(C(=O)Cn2nc(-c3ccncc3)cc2Cc2ccc(F)cc2)CC1
Found: 0.016 µM
